I'd appreciate it if you could supply pKd values for the items below.
experiment: DPH fluorescence quenching, dissociation constant with MM liposome membrane; format: binding; settings: 37 °C
Please keep in mind that pKd is minus log10 of the molar concentration; only the number is needed.

Entry Oc1cc(O)c2cc(O)c(-c3cc(O)c(O)c(O)c3)[o+]c2c1 : reported pKd = ? 4.94

What value of pKd has been reported for the following compound? COc1cc(-c2[o+]c3cc(O)cc(O)c3cc2OC2OC(CO)C(O)C(O)C2O)ccc1O (centres unmarked) [Pn 3-glc, Peonidin 3-O-glucoside] 3.94

GET /values?readout=pKd&item= COc1cc(-c2[o+]c3cc(O)cc(O)c3cc2OC2OC(CO)C(O)C(O)C2O)cc(O)c1O (centres unmarked) [Pt 3-glc, Petunidin 3-O-glucoside] 4.53

State the recorded pKd for this entry: COc1cc(-c2[o+]c3cc(O)cc(O)c3cc2O)cc(O)c1O 4.98

Query: pKd; subject: OCC1OC(Oc2cc3c(O)cc(O)cc3[o+]c2-c2cc(O)c(O)c(O)c2)C(O)C(O)C1O (centres unmarked) [Dp 3-glc, Delphinidin 3-O-glucoside] 4.03
